tested.target: human GlyT1b (Homo sapiens, UniProt P48067)
Construct: expressed in transfected cells
Sequence (P48067 1-652 isoform P48067-3): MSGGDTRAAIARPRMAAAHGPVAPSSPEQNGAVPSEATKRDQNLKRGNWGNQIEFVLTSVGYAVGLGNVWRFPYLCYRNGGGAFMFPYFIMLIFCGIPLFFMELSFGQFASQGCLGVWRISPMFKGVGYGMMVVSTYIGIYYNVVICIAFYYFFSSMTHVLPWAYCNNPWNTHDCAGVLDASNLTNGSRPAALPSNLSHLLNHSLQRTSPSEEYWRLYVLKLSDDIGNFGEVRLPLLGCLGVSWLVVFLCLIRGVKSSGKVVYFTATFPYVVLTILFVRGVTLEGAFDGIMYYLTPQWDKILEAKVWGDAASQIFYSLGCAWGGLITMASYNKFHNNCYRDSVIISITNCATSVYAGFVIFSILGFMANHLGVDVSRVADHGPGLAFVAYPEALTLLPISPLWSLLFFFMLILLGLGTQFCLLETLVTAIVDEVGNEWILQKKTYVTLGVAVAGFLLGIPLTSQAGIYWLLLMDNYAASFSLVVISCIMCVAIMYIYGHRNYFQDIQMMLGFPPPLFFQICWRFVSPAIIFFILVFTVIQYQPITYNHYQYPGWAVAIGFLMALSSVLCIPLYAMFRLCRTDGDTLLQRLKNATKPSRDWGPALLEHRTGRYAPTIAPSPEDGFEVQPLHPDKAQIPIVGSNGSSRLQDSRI
procedure.details: [3H] Glycine Uptake Assay (SPA) in recombinant hGlyT1b-CHO cells
Type: cell-based
study.conditions: Table 1
pIC50: −log10 of the molar value.
Response key: met means pIC50 >= 7; not met means pIC50 < 7.

- molecule: "Cc1cccc(C)c1C(=O)NC(c1cccc(Br)c1)C12CCC(CC1)N2C (stereo not shown)"
  tested.target: "human GlyT1b (Homo sapiens, UniProt P48067)"
  class.name: "met"
- molecule: "CSc1ncccc1C(=O)NC(c1ccccc1)C12CCC(CC1)N2C (single isomer, unassigned) [Example 2]"
  tested.target: "human GlyT1b (Homo sapiens, UniProt P48067)"
  class.name: "not met"
- molecule: "CN1C2CCC1(C(NC(=O)c1cccc(C(F)(F)F)c1Cl)c1ccccc1)CC2 (stereo not shown)"
  tested.target: "human GlyT1b (Homo sapiens, UniProt P48067)"
  class.name: "met"

I'd appreciate it if you could say whether Cc1c(C(=O)NC(c2ccccc2)C23CCC(CC2)N3C)cccc1C(F)(F)F (stereo not shown) has pIC50 at least equal to 7.
met

I'd appreciate it if you could say whether CN1C2CCC1(C(NC(=O)c1ccnc(Cl)c1Cl)c1ccccc1)CC2 (single isomer, unassigned) has pIC50 at least equal to 7.
not met

I'd appreciate it if you could say whether COCCN1C2CCC1(C(NC(=O)c1c(C)cccc1C)c1ccncc1)CC2 (single isomer, unassigned) has pIC50 at least equal to 7.
met

I'd appreciate it if you could say whether CN1C2CCC1([C@H](NC(=O)c1ccc(Cl)cc1Cl)c1ccccc1)CC2 (single isomer, unassigned) has pIC50 at least equal to 7.
not met

I'd appreciate it if you could say whether CN1C2CCC1(C(NC(=O)c1cccc(Cl)c1Cl)c1ccccc1)CC2 (stereo not shown) [Example 12] has pIC50 at least equal to 7.
met

I'd appreciate it if you could say whether COc1cccc(OC)c1C(=O)NC(c1ccccc1)C12CCC(CC1)N2C (stereo not shown) has pIC50 at least equal to 7.
not met

----------
tested.target: human GlyT1b (Homo sapiens)
Construct: expressed in transfected cells
procedure.details: [3H] Glycine Uptake Assay (SPA) in recombinant hGlyT1b-CHO cells
Type: cell-based
study.conditions: Table 2, unit from table title
Recorded pIC50 for the following compounds
API: returns pIC50 as number; meaning -log10 of concentration in mol/L.

Please review the entries below; each comes with its answer.
- compound: "Cc1cccc(C)c1C(=O)NC(c1cccc(F)c1)C12CCC(CC1)N2C (single isomer, unassigned) [Example 45]"
  pIC50: 6.76
- compound: "Cc1cccc(C)c1C(=O)NC(c1ccc(Br)cc1)C12CCC(CC1)N2C (centres unmarked)"
  pIC50: 8.40
- compound: "Cc1cccc(C)c1C(=O)NC(c1ccncc1)C12CCC(CC1)N2C (centres unmarked)"
  pIC50: 8.22
- compound: "Cc1cccc(C)c1C(=O)NC(c1ccc(Br)cc1)C12CCC(CC1)N2 (centres unmarked)"
  pIC50: 7.17
- compound: "COCCN1C2CCC1([C@H](NC(=O)c1ccccc1C)c1ccccc1)CC2"
  pIC50: 6.69
- compound: "CCCOc1ccc(C(NC(=O)c2c(C)cccc2C)C23CCC(CC2)N3C)cc1 (centres unmarked)"
  pIC50: 6.65

// next item, pIC50 requested
Report pIC50, nothing else, for this compound: Cc1cccc(C)c1C(=O)NC(c1cccc(F)c1)C12CCC(CC1)N2C (single isomer, unassigned) [Example 46]
8.70
